System: ovarian carcinoma cell line, A2780
protocol.text: MTT cell viability assay, combinations of phytocannabinoids (Example 2)
Type: cell-based
condition.description: Homo sapiens, A2780, 24 h, Experiment A (CBD with or without 1 hour pre-treatment with THCV 1 μM), A2780 cells, 24 hours
pIC50: −log10 of the molar value.
Reported pIC50 values are given for each entry in this list.

compound	pIC50
C=C(C)[C@@H]1CCC(C)=C[C@H]1c1c(O)cc(CCCCC)cc1O	4.90
CCCc1cc(O)c2c(c1)OC(C)(C)[C@@H]1CCC(C)=C[C@@H]21 [THCV, Tetrahydrocannabivarin]	4.79

These entries and their values trace back to patent US10098867B2.
